test_summary: chemical genetic growth profiling, strain panel (AID 1159580);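 also: tested at 20 µM; growth read once vehicle control cultures reached saturation at 30 °C; 1 = growth at the plate median or of vehicle wells; lower values mean less growth of the strain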
protocol_conditions: S. cerevisiae deletion strains, growth OD, locus YAL040C, strain CLN3, stronger effect = lower value
The campaign covered roughly 5,500 compounds. About 2,000 (36%) were called active. Another 18% or so got no clear call; they are omitted. The list shows a part of the results.
measurement_name: normalized growth
// no unit string in output, number only

Reference set (5 entries):
compound=COc1ccccc1N1CCN(CCN(C(=O)C2CCCCC2)c2ccccn2)CC1 measurement_name="normalized growth" readout_value=0.99
compound=CN[C@@H]1C[C@@H](c2ccc(Cl)c(Cl)c2)c2ccccc21 measurement_name="normalized growth" readout_value=1.02
compound=CCCN(CCC)C(=O)Cc1c(-c2ccc(Cl)cc2)nc2c(Cl)cc(Cl)cn12 measurement_name="normalized growth" readout_value=1
compound=Cc1nc(N=Nc2cc(S(=O)(=O)O)c3cc([N+](=O)[O-])cc(S(=O)(=O)O)c3c2)c(COP(=O)(O)O)c(C=O)c1O measurement_name="normalized growth" readout_value=1.02
compound=COc1ccccc1N1CCN(CCCNc2cc(=O)n(C)c(=O)n2C)CC1 measurement_name="normalized growth" readout_value=1

Exercise: Form field: reported normalized growth of "COc1ccccc1N1CCN(CCN(C(=O)c2ccc(I)cc2)c2ccccn2)CC1"
Solution: 0.976

Exercise: Reported normalized growth, compound "NCCCCN" : ____
Solution: 1.07

* * *

test_summary: chemical genetic growth profiling, strain panel (AID 1159580)
protocol_conditions: S. cerevisiae deletion strains, growth OD, locus YMR205C, strain PFK2
About 2,000 (36%) of roughly 5,500 compounds were called active. Inconclusive results (about 18%) are left out. Cut-off read from the data, not from the text of the source: active = normalized growth mostly below about 0.91 (no sharp cut-off); inconclusive = no clear call, values can overlap the other calls; inactive = mostly above about 0.92. The list shows a part of the results.
One label from this list, please: active, inactive

Here are 2 compounds together with their reported answers.
compound=CO[C@@H]1[C@@H](OC(N)=O)[C@@H](O)[C@H](Oc2ccc3c(O)c(NC(=O)c4ccc(O)c(CC=C(C)C)c4)c(=O)oc3c2C)OC1(C)C category_label=inactive
compound="CC1CCCC(C)N1NC(=O)c1ccc(Cl)c(S(N)(=O)=O)c1 (stereo not given)" category_label=inactive

Exercise: Status in this test for COC(=O)C(N)CS (stereo not given) ?
Solution: inactive

Exercise: Can you look up the reported call for CC1Cc2ccccc2N1NC(=O)c1ccc(Cl)c(S(N)(=O)=O)c1 (stereo not given) for me?
Solution: inactive

Exercise: Recorded test call requested for "O=C(O)C1=CC(=C(c2ccc(O)c(C(=O)O)c2)c2ccc(O)c(C(=O)O)c2)C=CC1=O"
Solution: inactive

* * *

test_summary: chemical genetic growth profiling, strain panel (AID 1159580);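 also: tested at 20 µM; growth read once vehicle control cultures reached saturation at 30 °C; 1 = growth at the plate median or of vehicle wells; lower values mean less growth of the strain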
protocol_conditions: S. cerevisiae deletion strains, growth OD, locus YNR052C, strain pop2, stronger effect = lower value
Screen size: about 5,500 compounds; about 2,000 (36%) were called active. Another 18% or so got no clear call; they are omitted. The list shows a part of the results.
Below is a list of entries, each paired with its recorded normalized growth value.
Please state the value as a number alone, without comment.

Illustrative cases are given below, each with its answer.
compound=COc1cc(C(=O)N2CCOCC2)cc(OC)c1OC readout_value=1.04
compound=COc1nc(NC(C)C)nc(NC(C)C)n1 readout_value=1.03
compound=CSc1nc(NC(C)C)nc(NC(C)C)n1 readout_value=1.02
compound="CC(=O)N1CCN(c2ccc(OCC3CO[C@](Cn4ccnc4)(c4ccc(Cl)cc4Cl)O3)cc2)CC1 (stereo not given in full)" readout_value=0.144
compound=COc1cc(C(=O)O)cc(OC)c1OC readout_value=1.03

Exercise: Using the record for C[C@@H]1CC[C@@]23CCC4(C)[C@@](C=CC5[C@@]6(C)CC[C@H](O)C(C)(C)C6CC[C@]54C)(OC2=O)C3[C@H]1C (stereo not given in full) , report its normalized growth.
Solution: 1.02

Exercise: # lookup: normalized growth of "Cc1cc(N)c2ccccc2[n+]1CCCCCCCCCC[n+]1c(C)cc(N)c2ccccc21"
Solution: 0.0672

Exercise: Query: normalized growth; subject: CC(=O)O[C@@H]1CC2C(C)(CC[C@H](O)C2(C)C)C2CC[C@]3(C)C(=CC(=O)O[C@H]3c3ccoc3)C21C (stereo not given in full)
Solution: 0.991

Exercise: Reported normalized growth, compound "C[N+]1(C)C[C@H](O)[C@H](C(=O)[O-])C1" : ____
Solution: 1

Exercise: Form field: reported normalized growth of "CC(C)Nc1nc(Cl)nc(NC(C)C)n1"
Solution: 1.01

* * *

test_summary: chemical genetic growth profiling, strain panel (AID 1159580);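 also: tested at 20 µM; growth read once vehicle control cultures reached saturation at 30 °C; 1 = growth at the plate median or of vehicle wells; lower values mean less growth of the strain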
protocol_conditions: S. cerevisiae deletion strains, growth OD, locus YMR058W, strain fet3
The campaign covered roughly 5,500 compounds. About 2,000 (36%) were called active. About 18% were inconclusive and are not listed. Cut-off read from the data, not from the text of the source: active = normalized growth mostly below about 0.91 (no sharp cut-off); inconclusive = no clear call, values can overlap the other calls; inactive = mostly above about 0.92. The list shows a part of the results.
Log the outcome using a class from y (active), n (inactive)

compound=CC(C)Nc1nc(Cl)nc(NC(C)C)n1 category_label=n

Exercise: Which outcome did this test record for the compound "NCCCN" ?
Solution: n

Exercise: For CO[C@H]1[C@@H](O)[C@@H](C)O[C@H](O[C@H]2CCC3(C)C4CCC5(C)[C@@H](C6=CC(=O)OC6)CC[C@]5(O)[C@@H]4CC[C@]3(O)C2)[C@@H]1O (some centres undefined) , which call appears in the assay record?
Solution: n

Exercise: Tell me the assay call for COC(=O)CC1C(C)(C)C(OC(C)=O)[C@@H]2[C@@H](OC(C)=O)[C@]34O[C@@]2(O)[C@]1(C)C3CC[C@]1(C)C4=CC(=O)O[C@H]1c1ccoc1 (some centres undefined) please.
Solution: n

Exercise: Hi, do you know how "NCCCC(O)(P(=O)(O)O)P(=O)(O)O" came out in this test?
Solution: n

Exercise: What was the test verdict on "CC(C)c1cccc(C(C)C)c1O" ?
Solution: n

Exercise: I would be grateful if you could indicate the recorded call for CCCCCC(O)C1C(=O)OC(C)C(O)/C=C/C=C/C=C/C=C/C=C(\C)C(O)CC(O)CC(O)CC(O)CC(O)CC(O)CC1O (centres undefined) .
Solution: n

Exercise: Field: outcome | Entry: "COC(=O)[C@H]1[C@H]2C[C@H]3c4[nH]c5cc(OC)ccc5c4CCN3C[C@H]2C[C@@H](OC(=O)c2cc(OC)c(OC)c(OC)c2)[C@@H]1OC"
Solution: n

* * *

test_summary: chemical genetic growth profiling, strain panel (AID 1159580);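 also: tested at 20 µM; growth read once vehicle control cultures reached saturation at 30 °C; 1 = growth at the plate median or of vehicle wells; lower values mean less growth of the strain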
protocol_conditions: S. cerevisiae deletion strains, growth OD, locus YLR330W, strain CHS5, stronger effect = lower value
The whole screen tested about 5,500 compounds, of which about 2,000 (36%) were called active. Roughly 18% stayed inconclusive and do not appear here. The list shows a part of the results.
Recorded normalized growth for the following compounds
Answer with a number only.

compound=CCCc1nn(C)c2c(=O)[nH]c(-c3cc(S(=O)(=O)N4CCN(C)CC4)ccc3OCC)nc12 readout_value=1.02
compound=Nc1ccc(S(=O)(=O)Nc2ncccn2)cc1 readout_value=0.994
compound=N#Cc1c(Cl)cccc1Cl readout_value=1.01
compound="CC1(C)Oc2ccc3ccc(=O)oc3c2CC1O (configuration not stated)" readout_value=1
compound=COc1cc(C)c2c(=O)c3c(O)cc(O)cc3oc2c1 readout_value=0.973
compound="CC1(C)C(=O)CC[C@@]2(C)C1C[C@@H](O)[C@@]1(C)C3=CC(=O)O[C@@H](c4ccoc4)[C@]3(C)CCC21 (some centres not stated)" readout_value=1
compound="COC1CC(O[C@H]2CC[C@]3(C=O)C4CC[C@]5(C)C(C6=CC(=O)OC6)CC[C@]5(O)C4CC[C@]3(O)C2)OC(C)C1O (some centres not stated)" readout_value=1.02
compound="COP(N)(=O)SC (configuration not stated)" readout_value=1
compound=COc1ccc(-c2cc(=O)c3c(O)cc(O)cc3o2)cc1O readout_value=0.999
compound=NC(=O)c1ccccc1O readout_value=1.01

Exercise: Give its normalized growth value. Item: "COc1cc(O)c2c(=O)cc(-c3ccc(OC)c(-c4c(O)cc(O)c5c(=O)cc(-c6ccc(O)cc6)oc45)c3)oc2c1"
Solution: 0.975

Exercise: Dear colleague, I am looking for the recorded normalized growth of the following compound: "CN(C)C(=O)C(CCN1CCC(O)(c2ccc(Cl)cc2)CC1)(c1ccccc1)c1ccccc1"
Solution: 0.993

Exercise: Can you look up the measured normalized growth of "CNC[C@H](O)c1cccc(O)c1" for me?
Solution: 1.01

Exercise: Data request, read-out normalized growth, for CC(=O)OCC(=O)[C@@]1(O)CCC2C3C[C@H](C)C4=CC(=O)C=CC4(C)C3[C@@H](O)CC21C (some centres not stated)
Solution: 1.01

Exercise: What value of normalized growth has been reported for the following compound? CC(C)=CC1C(CO)C1(C)C (configuration not stated)
Solution: 1.02

Exercise: Would you kindly share the measured normalized growth for "CC(=O)O[C@@H]1c2c(ccc3ccc(=O)oc23)OC(C)(C)[C@@H]1OC(=O)CC(C)C" ?
Solution: 1

Exercise: For the compound "NCCCCN" , what normalized growth is on record?
Solution: 1.01

Exercise: What does the record list as normalized growth for "COC1=CC(=O)C=C(OC)C1=O" ?
Solution: 0.997

Exercise: Look at this compound and give its reported normalized growth. "C/C=C(/C)C(=O)O[C@@H]1Cc2c(ccc3ccc(=O)oc23)OC1(C)C"
Solution: 0.989

Exercise: I'd like to know its normalized growth. The compound in question is "COc1c(O)cc2c(c1O)[C@H]1O[C@H](CO)[C@@H](O)[C@H](O)[C@@H]1OC2=O"
Solution: 1.01

Exercise: What does the record list as normalized growth for "CO[C@@H]1[C@@H](OC(N)=O)[C@@H](O)[C@H](Oc2ccc3c(O)c(NC(=O)c4ccc(O)c(CC=C(C)C)c4)c(=O)oc3c2C)OC1(C)C" ?
Solution: 1.03

Exercise: Requested read-out: normalized growth. Entry: "COC(=O)NC(=S)Nc1ccccc1NC(=S)NC(=O)OC"
Solution: 1
